System: Factor VII (FVII) protein
Assay: Measurement of Factor VII (FVII) protein in mouse plasma after FVII-siRNA lipid particles
Type: in vivo, C57BL6/J mice
Settings: 0.1 mg/kg caudal vein, plasma 24 hours after administration, PBS group = 100%
Method: The Factor VII (FVII) protein was measured according to the method described in Nature Biotechnology (2010) 28, 172-176. C57BL6/J mice were randomly grouped (n=3). A dispersion liquid of nucleic acid lipid particles was prepared by the same method as that in <Preparation of nucleic acid lipid particles>, except that FVII-siRNA having the sequence described in Molecular Therapy (2009) 17, p. […] The amount of FVII protein was quantified using the obtained plasma and a Biophen FVII assay kit (Aniara). […]
Measured Property: Relative amount of FVII protein (%)

* CCCCCCCC(=O)OCCN(CCOC(=O)OC(CCCCCC)CCCCCCCCC(=O)OCC(CCCCC)CCCCC)CCN(CC)CC (stereo not shown) [Example 129] | 4
* CCCCC/C=C\C/C=C\CCCCCCCCC(CCCCCCCC/C=C\C/C=C\CCCCC)OC(=O)OCCN(CCC)CCN(C)C [Example 31] | 14
* CCCCC/C=C\C/C=C\CCCCCCCCC(CCCCCCCC/C=C\C/C=C\CCCCC)OC(=O)OCCN(CCCCC)CCN(C)C [Example 40] | 3
* CCCCCCCCCCC(CCCCCCCCC(=O)OCC(CCCC)CCCCCC)OC(=O)OCCN(CCN(CC)CC)C(C)C (stereo not shown) [Example 69] | 6

----------
assay: Particle size of nucleic acid lipid particles (Luc2-siRNA); format: physicochemical; details: compound/DSPC/cholesterol/DMG-PEG2000 50/10/38.5/1.5
Binning rule for recorded Particle size (nm): range A (below 70 nm), range B (70 nm to below 80 nm), range C (80 nm or more)

- CCCCC/C=C\C/C=C\CCCCCCCCN(CCCCCCCC/C=C\C/C=C\CCCCC)C(=O)OCCN(C)CCN(C)C: range A
- CCCCCCCCC(CCCCCC)COC(=O)CCCCC(CCCCCC)OC(=O)OCCN(CCN(CC)CC)C(C)C (stereo not shown): range B
- CCCCCCCC/C=C\CCCCCCCCN(CCCCCCCCC)C(=O)OCCN(C)CCN(C)C: range C
- CCCCCCCCC(CCCCCC)COC(=O)CCCC(CCCCCC)OC(=O)OCCN(CCO)CCN(CC)CC (stereo not shown): range C
- CCCCCCCCC(CCCCCC)COC(=O)CCCC(CCCCCC)OC(=O)OCCN(CCOC(=O)CCCCCCC)CCN(CC)CC (stereo not shown): range A
- CCCCCCCCCCC(CCCCCCCC)COC(=O)CCCCCCCCC(CCCCCC)OC(=O)OCCN(CCN(CC)CC)C(C)C (stereo not shown): range A
- CCCC/C=C\CCCCCCCC(=O)OCCCCCCC(CCCCCCOC(=O)CCCCCCC/C=C\CCCC)OC(=O)OCCN(CC)CCN(CC)CC: range B
- CCCCCCC(CCCCCCCCC(=O)OCC(CCCCC)CCCCC)OC(=O)OCCN(CCO)CCN(CC)CC (stereo not shown): range C
- CCCCCCCCC(=O)OCCN(CCOC(=O)OC(CCCCCC)CCCCCCCCC(=O)OCC(CCCC)CCCCCC)CCN(CC)CC (stereo not shown): range A
- CCCCCCCC(=O)OCCN(CCOC(=O)OC(CCCCCC)CCCCCCCCC(=O)OCC(CCCC)CCCCCC)CCN(CC)CC (stereo not shown): range B
- CCCCCCCCCCC(CCCCCCCCC(=O)OCC(CCCC)CCCCCC)OC(=O)OCCN(CCN(CC)CC)C(C)C (stereo not shown): range A
- CCCCC/C=C\C/C=C\CCCCCCCCC(CCCCCCCC/C=C\C/C=C\CCCCC)OC(=O)OCCN(CCO)CCN(C)C: range B
- CCCCC/C=C\C/C=C\CCCCCCCCN(CCCCCCCC/C=C\C/C=C\CCCCC)C(=O)OCCN(CC)CCN1CCOCC1: range C
- CCCCCCCCCCCCCCCCN(CCCCCCCCCCCCCCCC)C(=O)OCCN(C)CCN(C)C: range C
- CCCCCCC(CCCC)COC(=O)CCCC(CCCCCC)OC(=O)OCCN(CCN(CC)CC)C(C)C (stereo not shown): range C
- CCCCCCC(CCCC)COC(=O)CCCC(CCCCCC)OC(=O)OCCN(CCO)CCN(CC)CC (stereo not shown): range C
- CCCCCCC(CCCC)COC(=O)CCCCCCCCC(CCCCCC)OC(=O)OCCN(CCO)CCN(CC)CC (stereo not shown): range C
- CCCCCCCCCOC(=O)CCCCCCCN(CCCCCCCC(=O)OCCCCCCCCC)C(=O)OCCN(C)CCN(C)C: range C

----------
The entries below are paired with their reported Nucleic acid encapsulation rate.
experiment: Encapsulation rate of siRNA in nucleic acid lipid particles (Luc2-siRNA); assay type: physicochemical; conditions: compound/DSPC/cholesterol/DMG-PEG2000 50/10/38.5/1.5
Measured Property: Nucleic acid encapsulation rate (%)

• CCCCCCCC/C=C\CCCCCCCCN(CCCCCCCCC)C(=O)OCCN(C)CCN(C)C = 83
• CCCCCCCCCOC(=O)CCCCCCCN(CCCCCCCC(=O)OCCCCCCCCC)C(=O)OCCN(C)CCN(C)C = 88
• CCCCC/C=C\C/C=C\CCCCCCCCC(CCCCCCCC/C=C\C/C=C\CCCCC)OC(=O)OCCN(C)CCN(CC)CC = 85
• CCCCC/C=C\C/C=C\CCCCCCCCC(CCCCCCCC/C=C\C/C=C\CCCCC)OC(=O)OCCCN(C)C [Comparative Example 8, reference compound] = 59

----------
The entries below are paired with their reported Nucleic acid encapsulation rate.
experiment: Encapsulation rate of siRNA in nucleic acid lipid particles (Luc2-siRNA); format: physicochemical; conditions: compound/DSPC/cholesterol/DMG-PEG2000 50/10/38.5/1.5
Measured Property: Nucleic acid encapsulation rate (%)

- CCCCCCC(CCCC)COC(=O)CCCCCCCCC(CCCCCC)OC(=O)OCCN(CCO)CCN(CC)CC (stereo not drawn): 86
- CCCCCCCC/C=C\CCCCCCCC(=O)OCCN(CCOC(=O)OC(CCCCCC)CCCC(=O)OCC(CCCCCC)CCCCCCCC)CCN(CC)CC (stereo not drawn): 90
- CCCCCCCCC(CCCCCC)COC(=O)CCC(CCCCCC)OC(=O)OCCN(CCN(CC)CC)C(C)C (stereo not drawn): 69
- CCCCCCCCC1CC1CCCCCCCC(=O)OCCCCCCC(CCCCCCOC(=O)CCCCCCCC1CC1CCCCCCCC)OC(=O)OCCN(CC)CCN(CC)CC (stereo not drawn): 79
- CCCCC/C=C\C/C=C\CCCCCCCCN(CCCCCCCC/C=C\C/C=C\CCCCC)C(=O)CN(C)CCN(C)C [Comparative Example 6, reference compound]: 89
- CCCCCCCC/C=C\CCCCCCCC(=O)OCCN(CCOC(=O)OC(CCCCCC)CCCC(=O)OCC(CCCC)CCCCCC)CCN(CC)CC (stereo not drawn): 89

----------
assay: Encapsulation rate of siRNA in nucleic acid lipid particles (Luc2-siRNA); assay type: physicochemical; details: compound/DSPC/cholesterol/DMG-PEG2000 50/10/38.5/1.5
The entries below are paired with their reported Nucleic acid encapsulation rate.
Measured Property: Nucleic acid encapsulation rate

• CCCCC/C=C\C/C=C\CCCCCCCCC(CCCCCCCC/C=C\C/C=C\CCCCC)OC(=O)OCCN(C)CCN(C)C = 84%
• CCCCCCCCC(CCCCCC)COC(=O)CCCCCCCCC(CCCCCC)OC(=O)OCCN(CCOC(=O)CCCCC)CCN(CC)CC (centres unmarked) = 82%
• CCCCCCCCC(=O)OCCN(CCOC(=O)OC(CCCCCC)CCCCCCCCC(=O)OCCC(CCCCC)CCCCC)CCN(CC)CC (centres unmarked) = 75%
• CCCCCCCCC(CCCCCC)COC(=O)CCCC(CCCCCC)OC(=O)OCCN(CCOC(=O)CCCCCCC)CCN(CC)CC (centres unmarked) = 93%
• CCCCCCCCCCC(CCCCCCCCCCC(=O)OCC(CCCC)CCCCCC)OC(=O)OCCN(CC)CCN(CC)CC (centres unmarked) = 73%
• CCCCCCCCCC(CCCCCCCCC(=O)OCC(CCCC)CCCCCC)OC(=O)OCCN(CC)CCN(CC)CC (centres unmarked) = 76%
• CCCCC/C=C\C/C=C\CCCCCCCCC(CCCCCCCC/C=C\C/C=C\CCCCC)OC(=O)OCCN(C)C [Comparative Example 4, reference compound] = 77%
• CCCCCCCC(=O)OCCN(CCOC(=O)OC(CCCCCC)CCCCCCCCC(=O)OCC(CCCCC)CCCCC)CCN(CC)CC (centres unmarked) = 63%
• CCCCCCCCCCC(CCCCCCCC)COC(=O)CCCCCCCCC(CCCCCC)OC(=O)OCCN(CCN(CC)CC)C(C)C (centres unmarked) = 91%
• CCCCCCCCC(CCCCCC)COC(=O)CCCCCC(CCCCCC)OC(=O)OCCN(CCN(CC)CC)C(C)C (centres unmarked) = 73%
• CCCCCCCCCCCCC(CCCCCCCCCC)COC(=O)CCCC(CCCCCC)OC(=O)OCCN(CCN(CC)CC)C(C)C (centres unmarked) = 82%
• CCCCCCCCC(CCCCCC)COC(=O)CCCCCCCCC(CCCCCC)OC(=O)OCCN(CCO)CCN(CC)CC (centres unmarked) = 82%
• CCCCCCCCCCCCC(CCCCCCCCC(=O)OCC(CCCC)CCCCCC)OC(=O)OCCN(CCN(CC)CC)C(C)C (centres unmarked) = 75%
• CCCCCCCCCCCCC(CCCCCCCCC(=O)OCC(CCCC)CCCCCC)OC(=O)OCCN(CC)CCN(CC)CC (centres unmarked) = 79%
